Below is a list of entries, each paired with its recorded CC50 value.
Tested on: HL-60 cells
Protocol summary: Cytotoxicity (CC50), HL-60 cells
Format: cell-based, human
Test settings: Homo sapiens, HL-60; 24 h incubation
API: value field is a number in µM; no unit string.

For orientation, consider the following solved cases.
[
  {
    "Molecule": "C=CC(=O)NNC(=O)c1cc(Cl)ccc1Cl [1h, N^2-Acryloyl-2,5-dichlorobenzohydrazide]",
    "Experimental target": "HL-60 cells",
    "CC50 (µM)": 5.62
  },
  {
    "Molecule": "C=CC(=O)NNC(=O)c1ccc(OC)cc1 [1l, N^2-Acryloyl-4-methoxylbenzohydrazide]",
    "Experimental target": "HL-60 cells",
    "CC50 (µM)": 1.86
  },
  {
    "Molecule": "C=CC(=O)NNC(=O)c1ccc(Cl)cc1 [1d, N^2-Acryloyl-4-chlorobenzohydrazide]",
    "Experimental target": "HL-60 cells",
    "CC50 (µM)": 2.9
  }
]

For HL-60 cells, provide CC50 of C=CC(=O)NNC(=O)c1ccccc1 [1a, N^2-Acryloylbenzohydrazide] please. 3.32

###

Consider the following molecules and their measured Avg SI, neoplastic cells readings.
Test system: Ramos, NALM-60, CEM, HL-60, JURKAT, RAJI cells
Protocol summary: Cytotoxicity (CC50), average over six leukemia/lymphoma cell lines
Assay type: cell-based, human
Experimental: In brief, the compounds were incubated for 24 h with the neoplasms, using DMEM and RPMI media. Three independent experiments were carried out.
Respond using a number only.

[
  {
    "Molecule": "C=CC(=O)NNC(=O)c1ccccc1 [1a, N^2-Acryloylbenzohydrazide]",
    "Experimental target": "Ramos, NALM-60, CEM, HL-60, JURKAT, RAJI cells",
    "Avg SI, neoplastic cells": 16.1
  },
  {
    "Molecule": "C=CC(=O)NNC(=O)c1ccc(Cl)cc1 [1d, N^2-Acryloyl-4-chlorobenzohydrazide]",
    "Experimental target": "Ramos, NALM-60, CEM, HL-60, JURKAT, RAJI cells",
    "Avg SI, neoplastic cells": 14.2
  },
  {
    "Molecule": "C=CC(=O)NNC(=O)c1cc(Cl)ccc1Cl [1h, N^2-Acryloyl-2,5-dichlorobenzohydrazide]",
    "Experimental target": "Ramos, NALM-60, CEM, HL-60, JURKAT, RAJI cells",
    "Avg SI, neoplastic cells": 11.0
  }
]

Please find the next molecule below.
Record lookup: for Ramos, NALM-60, CEM, HL-60, JURKAT, RAJI cells, what Avg SI, neoplastic cells belongs to C=CC(=O)NNC(=O)c1ccc(OC)cc1 [1l, N^2-Acryloyl-4-methoxylbenzohydrazide] ? 22.7

###

The entries below come with measured melting point values attached.

[
  {
    "Compound": "COc1ccc(C=C2CN(CCC(=O)NNC(=O)c3ccc(OC)c(OC)c3)CC(=Cc3ccc(OC)cc3)C2=O)cc1",
    "Result": "175 to 178 °C"
  },
  {
    "Compound": "C=CC(=O)NNC(=O)c1ccccc1C [1j, N^2-Acryloyl-2-methylbenzohydrazide]",
    "Result": "151 to 153 °C"
  },
  {
    "Compound": "CCC(=O)NNC(=O)c1ccccc1 [6a, N^2-Propionylbenzohydrazide]",
    "Result": "106 to 107 °C"
  },
  {
    "Compound": "C=CC(=O)NNC(=O)c1ccccc1Cl [1e, N^2-Acryloyl-2-chlorobenzohydrazide]",
    "Result": "165 to 167 °C"
  },
  {
    "Compound": "C=CC(=O)NNC(=O)c1cccc(Cl)c1 [1f, N^2-Acryloyl-3-chlorobenzohydrazide]",
    "Result": "155 to 158 °C"
  },
  {
    "Compound": "COc1ccc(C(=O)NNC(=O)CCN2CC(=Cc3ccc([N+](=O)[O-])cc3)C(=O)C(=Cc3ccc([N+](=O)[O-])cc3)C2)cc1OC",
    "Result": "153 to 158 °C"
  }
]

Data request, read-out melting point, for COc1ccc(C(=O)NNC(=O)CCN2CC(=Cc3ccc(Cl)cc3)C(=O)C(=Cc3ccc(Cl)cc3)C2)cc1OC 200 to 202 °C

Another compound to check: COc1ccc(C(=O)NNC(=O)CCN2CC(=Cc3ccc(C)cc3)C(=O)C(=Cc3ccc(C)cc3)C2)cc1OC 190 to 192 °C

Moving on to the next compound: C=CC(=O)NNC(=O)c1ccc(Br)cc1 [1c, N^2-Acryloyl-4-bromobenzohydrazide] 256 to 259 °C

Next: C=CC(=O)NNC(=O)c1ccc(Cl)c(Cl)c1 [1g, N^2-Acryloyl-3,4-dichlorobenzohydrazide] 172 to 175 °C

Let us now turn to C=CC(=O)NNC(=O)c1ccc(OC)c(OC)c1 163 to 165 °C

Repeat with COc1ccc(C(=O)NNC(=O)CCN2CC(=Cc3ccccc3)C(=O)C(=Cc3ccccc3)C2)cc1OC 151 to 154 °C

Let us now turn to C=CC(=O)NNC(=O)c1ccc(Cl)cc1 [1d, N^2-Acryloyl-4-chlorobenzohydrazide] 233 to 235 °C

###

Protocol summary: Cytotoxicity (CC50), non-malignant Hs27 foreskin cells
Type: cell-based
Test settings: human, 24 h incubation
Measured property: CC50 at 24 h (µM)
Expressed in µM, but write only the number.

[
  {
    "Compound": "C=CC(=O)NNC(=O)c1ccccc1 [1a, N^2-Acryloylbenzohydrazide]",
    "CC50 at 24 h / µM": 12.1
  }
]

Consider the compound shown here: C=CC(=O)NNC(=O)c1ccc(Cl)cc1 [1d, N^2-Acryloyl-4-chlorobenzohydrazide] What is its recorded CC50 at 24 h? 10.5

Okay, and C=CC(=O)NNC(=O)c1cc(Cl)ccc1Cl [1h, N^2-Acryloyl-2,5-dichlorobenzohydrazide] ? 14.4

Could you do the same for C=CC(=O)NNC(=O)c1ccc(OC)cc1 [1l, N^2-Acryloyl-4-methoxylbenzohydrazide] , please? 17.7

###

Protocol summary: Cytotoxicity (CC50), average over non-malignant cells
Assay type: cell-based
Test settings: human, Hs27 and MCF10A cells (non-malignant), average of both
Entries and their measured CC50 at 24 h follow.
Record the result as a number with its unit.

[
  {
    "Compound": "C=CC(=O)NNC(=O)c1ccccc1 [1a, N^2-Acryloylbenzohydrazide]",
    "Result": "12.9 µM"
  }
]

Field request: CC50 at 24 h | item: C=CC(=O)NNC(=O)c1cc(Cl)ccc1Cl [1h, N^2-Acryloyl-2,5-dichlorobenzohydrazide] 13.7 µM

Thanks! And C=CC(=O)NNC(=O)c1ccc(Cl)cc1 [1d, N^2-Acryloyl-4-chlorobenzohydrazide] ? 8.69 µM

Field entry: C=CC(=O)NNC(=O)c1ccc(OC)cc1 [1l, N^2-Acryloyl-4-methoxylbenzohydrazide] 17.9 µM

###

Here, each record is paired with measured melting point data.

Worked examples follow.
[
  {
    "Compound": "CC(=O)NNC(=O)c1ccccc1 [6b, N^2-Acetylbenzohydrazide]",
    "melting point": "171 to 172 °C"
  },
  {
    "Compound": "COc1ccc(C(=O)NNC(=O)CCN2CC(=Cc3ccc(F)cc3)C(=O)C(=Cc3ccc(F)cc3)C2)cc1OC",
    "melting point": "198 to 200 °C"
  },
  {
    "Compound": "C=CC(=O)NNC(=O)c1ccccc1 [1a, N^2-Acryloylbenzohydrazide]",
    "melting point": "177 to 179 °C"
  }
]

We next turn to a different compound, shown below.
What value of measured melting point is listed for C=CC(=O)NNC(=O)c1ccc(C)cc1 [1k, N^2-Acryloyl-4-methylbenzohydrazide] ? 157 to 160 °C

###

The following compounds are listed with their measured melting point values.

[
  {
    "Compound": "O=C(CCNNC(=O)c1ccccc1)NNC(=O)c1ccccc1",
    "melting point": "193 to 195 °C"
  },
  {
    "Compound": "C=CC(=O)NNC(=O)c1cc(Cl)ccc1Cl [1h, N^2-Acryloyl-2,5-dichlorobenzohydrazide]",
    "melting point": "207 to 210 °C"
  },
  {
    "Compound": "C=CC(=O)NNC(=O)c1cccc(C)c1 [1i, N^2-Acryloyl-3-methylbenzohydrazide]",
    "melting point": "138 to 140 °C"
  }
]

--- query ---
Entry O=C(CCN1CC(=Cc2ccccc2)C(=O)C(=Cc2ccccc2)C1)NNC(=O)c1ccccc1 has what melting point? 154 to 156 °C

Where do these numbers come from? They come from paper PMC8226474.
